targetOrTestSystem: phosphorylated Btk at Tyr223 in Ramos cells (Homo sapiens (Human), UniProt Q06187)
Sequence (Q06187 whole entry): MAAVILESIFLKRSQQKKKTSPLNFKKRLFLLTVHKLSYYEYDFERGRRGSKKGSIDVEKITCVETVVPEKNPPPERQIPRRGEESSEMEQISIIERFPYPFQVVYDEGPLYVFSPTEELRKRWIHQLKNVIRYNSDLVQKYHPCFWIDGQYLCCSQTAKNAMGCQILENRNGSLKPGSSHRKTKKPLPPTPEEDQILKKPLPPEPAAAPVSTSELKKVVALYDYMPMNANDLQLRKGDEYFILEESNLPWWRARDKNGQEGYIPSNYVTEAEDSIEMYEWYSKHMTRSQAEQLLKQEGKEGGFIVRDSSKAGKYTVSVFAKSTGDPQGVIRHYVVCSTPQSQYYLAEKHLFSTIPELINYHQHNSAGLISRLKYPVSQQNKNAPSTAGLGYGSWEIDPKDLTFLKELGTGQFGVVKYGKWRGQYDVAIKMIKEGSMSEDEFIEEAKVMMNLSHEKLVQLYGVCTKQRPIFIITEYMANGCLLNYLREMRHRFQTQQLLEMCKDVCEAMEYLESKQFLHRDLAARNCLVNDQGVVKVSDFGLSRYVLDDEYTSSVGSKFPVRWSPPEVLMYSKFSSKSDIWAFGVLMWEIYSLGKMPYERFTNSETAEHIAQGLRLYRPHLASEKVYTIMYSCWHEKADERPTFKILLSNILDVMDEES
assayExplanation: Btk pY223 cellular assay (HTRF) in Ramos cells
Format: cell-based
details: 1 hour compound incubation, pervanadate or Na3VO4 stimulation
experimentalReadout: IC50 (nM)

>>> df
                                   molecule                        targetortestsystem  experimentalreadout  valueobserved
0  C=CC(=O)N1CC[C@H]2[C@H](CNc3c(C(N)=O)c(-c4ccc(Oc5ccccc5)cc4)nn32)C1 (relative stereo) [Compound 30]  phosphorylated Btk at Tyr223 in Ramos cells (Homo sapiens (Human), UniProt Q06187)                 IC50              4
1  C=CC(=O)NCC1(C)CCNc2c(C(N)=O)c(-c3ccc(Oc4ccccc4)cc3)nn21 (stereo not shown) [Compound 143]  phosphorylated Btk at Tyr223 in Ramos cells (Homo sapiens (Human), UniProt Q06187)                 IC50            4.1
2  C=CC(=O)N1CCC2(CCNc3c(C(N)=O)c(-c4ccc(Oc5ccccc5)cc4)nn32)CC1 [Compound 43]  phosphorylated Btk at Tyr223 in Ramos cells (Homo sapiens (Human), UniProt Q06187)                 IC50           75.8
3  C=CC(=O)N1CC(C2CCNc3c(C(N)=O)c(-c4ccc(Oc5ccccc5C#N)cc4)nn32)C1 (stereo not shown) [Compound 135]  phosphorylated Btk at Tyr223 in Ramos cells (Homo sapiens (Human), UniProt Q06187)                 IC50            2.4
4  C=CC(=O)Nc1ccccc1C1CCNc2c(C(N)=O)c(-c3ccc(OCc4ccccn4)c(Cl)c3)nn21 (stereo not shown) [Compound 146]  phosphorylated Btk at Tyr223 in Ramos cells (Homo sapiens (Human), UniProt Q06187)                 IC50              4
5  CN(C)C/C=C/C(=O)N1CCC(C2CCNc3c(C(N)=O)c(-c4ccc(Oc5ccccc5)cc4)nn32)CC1 (single isomer, unassigned) [Compound 171]  phosphorylated Btk at Tyr223 in Ramos cells (Homo sapiens (Human), UniProt Q06187)                 IC50           10.9
6  C=CC(=O)N1CC(C2CCNc3c(C(N)=O)c(-c4ccc(Oc5ccc(Cl)cc5)cc4)nn32)C1 (stereo not shown) [Compound 106]  phosphorylated Btk at Tyr223 in Ramos cells (Homo sapiens (Human), UniProt Q06187)                 IC50           30.3
